- Test name: protein stability index of a GFP-peptide fusion (GPS, HEK-293T) (PSI 1-6); higher = more stable;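 also: 24-mer peptide tiles fused after GFP, lentivirally expressed, FACS-sorted into six equal bins by GFP/DsRed ratio, decoded by Illumina sequencing, PSI is the read-weighted mean bin number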
- Cond: treatment: DMSO; c terminus: a fixed tail appended
Reported protein stability index maps to class as: low interval (below 3), middle interval (3 to below 5), high interval (5 or more)

The examples below pair each entry with its known result.
Seq | Class name
FSTVWLCWDMQGKRFVAMKVVKSA [SRPK2] | low interval
EEAPAVTAGLKIFEPPAPGEGNSS [TNFSF13B] | high interval
CQSGYFSSMFSGSWKESSMNIIEL [GMCL1] | low interval
IVLLEELLPKGSKEEQRDYVFYLA [FIS1] | low interval
KGISQTNLITTVTPEKKAEEERDE [EPB41L3] | high interval
GPQTPKACDSKLTFDAITTIRGEV [MMP1] | middle interval

Shifting focus to the sequence that follows.
Incoming: Sort PVEDSHTADISSHFQEAIDFIDCV [DUSP5] into one of the categories.
Outgoing: middle interval

---

- Test name: protein stability index of a GFP-peptide fusion (GPS, HEK-293T) (PSI 1-6); higher = more stable
- Cond: treatment: DMSO; c terminus: a fixed tail appended
We use 3 as the dividing line for protein stability index: on or above the line is yes (1), below is no (0).

Seq | Class name
RHAQTISGHALRILIVDWDVHHGN [HDAC6] | no (0)
AAKIIPHSRVAKPHQREKIDKEIE [PLK2] | yes (1)
VPVVTPTASTAPPVPATAPSPAPA [SNAP91] | yes (1)
YEGGHIKGAVNLHMEEEVEDFLLK [CDC25A] | yes (1)
GKETMCTVDGLHFNSTYNARVKAF [TRIM9] | yes (1)

Incoming: Can HAPKIGSNGVEMAAKFPSGSQRAR [SDE2] be said to have protein stability index at or above 3?
Outgoing: yes (1)

Incoming: Can SQIRLNREHKETCEMDWSDKMEAY [TEKT4] be said to have protein stability index at or above 3?
Outgoing: yes (1)

Incoming: Can ELTNGVINAAFMLLFKDLIKLFAC [SNAP91] be said to have protein stability index at or above 3?
Outgoing: yes (1)

Incoming: Can GTGGEEVEALQLSARWLEVLRTYL [FBXO33] be said to have protein stability index at or above 3?
Outgoing: no (0)

Incoming: Can EVLVGKTIEQSLLEVMEEEELANL [RSPH3] be said to have protein stability index at or above 3?
Outgoing: yes (1)

Incoming: Can EILDYIFSGQIRLNEDTIQDVVQA [GAN] be said to have protein stability index at or above 3?
Outgoing: no (0)

Incoming: Can QTSSSSSQSETSSAVSTPSPVTRT [DLC1] be said to have protein stability index at or above 3?
Outgoing: yes (1)

---

- Test name: protein stability index of a GFP-peptide fusion (GPS, HEK-293T) (PSI 1-6); higher = more stable
- Cond: treatment: DMSO; c terminus: a fixed tail appended
Entries and their protein stability index
Answer with the value's number alone.

Study these solved cases before continuing.
Seq | protein stability index
SLADGGSASPIKDQPVMAVKTGED [FANCE] | 5.46
QPFYHDDSYTATGYGRAPGGLSLH [JUNB] | 3.18
TRVPRAAIVFTDGRAQDDVSEWAS [MATN2] | 4.34
EEELIRIFQEQQKKWQQYRSVRRE [FAM9B] | 3.92
QLESLGLLAPGEQSLPCTERKPAA [KISS1] | 4.69
DVSLCRWHPKPYCQALPYGPGYWM [FBXO34] | 2.33
WRWTGFNFGFDLLVTYTNRYIIFK [GMCL1] | 2.63
GFWETIFGNRIKRVKLISNKGTET [PHTF1] | 1.6
AAYSSILSSLGENPQRQGLLKTPW [GCH1] | 2.54
DSDKLSGLWSRISHLVLPVQPVSS [TOR1AIP2] | 2.3

Incoming: Find the recorded protein stability index belonging to AQDLGLKMTDLLSRRLQLGSEENG [PCDHGC5] and report it.
Outgoing: 3.94

Incoming: Find the recorded protein stability index belonging to RSEAVAQLWGQKKKNSNMTYEKLS [ELF3] and report it.
Outgoing: 3.52

Incoming: Find the recorded protein stability index belonging to PGKYFSAAEYHAQRLKAVIVIQTY [IQUB] and report it.
Outgoing: 2.81

Incoming: Find the recorded protein stability index belonging to NIMNKEAFMNQEITKAFHVRKANR [RHOBTB1] and report it.
Outgoing: 3.35

Incoming: Find the recorded protein stability index belonging to DIFALALTVVCAAGAEPLPRNGDQ [WEE1] and report it.
Outgoing: 2.77

Incoming: Find the recorded protein stability index belonging to NPELIKPKKLLNPVKASRSHQELH [FAM107A] and report it.
Outgoing: 4.21
